- assayedSystem: panel of 255 wild-type kinases (Homo sapiens, UniProt Q00526)
- Sequence (Q00526 whole entry): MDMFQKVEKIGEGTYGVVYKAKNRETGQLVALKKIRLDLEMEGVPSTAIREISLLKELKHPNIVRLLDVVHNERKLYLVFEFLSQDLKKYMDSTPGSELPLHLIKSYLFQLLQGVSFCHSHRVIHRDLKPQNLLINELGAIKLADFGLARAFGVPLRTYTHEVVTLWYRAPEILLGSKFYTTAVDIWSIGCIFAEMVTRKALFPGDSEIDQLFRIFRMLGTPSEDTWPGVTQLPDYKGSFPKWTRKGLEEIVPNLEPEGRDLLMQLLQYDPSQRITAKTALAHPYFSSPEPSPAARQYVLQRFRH
- testDescription: Kinase panel profiling at 1 µmol/L (MSA or IMAP), percentage inhibition
- Assay type: biochemical
- settings: CDK3/CycE1 kinase assay; 1 µmol/L single concentration; read-out: %-inhibition CDK3/CycE1
assayReadout: inhibition at 1 µM

>>> print(df.to_string())
                                   compound                             assayedsystem        assayreadout  result
0  CN1CCN(c2ccc(C(=O)Nc3n[nH]c4ccc(Cc5cc(F)cc(F)c5)cc34)c(NC3CCOCC3)c2)CC1 [entrectinib]  panel of 255 wild-type kinases (Homo sapiens, UniProt Q00526)  inhibition at 1 µM   5.63%
1  FC(F)(F)c1ccc(CNc2ccc(Cc3c[nH]c4ncc(Cl)cc34)cn2)cn1 [pexidartinib]  panel of 255 wild-type kinases (Homo sapiens, UniProt Q00526)  inhibition at 1 µM  -1.23%
2  CCn1c(=O)c(-c2cc(NC(=O)Nc3ccccc3)c(F)cc2Br)cc2cnc(NC)cc21 [ripretinib]  panel of 255 wild-type kinases (Homo sapiens, UniProt Q00526)  inhibition at 1 µM  -4.34%

Continue with the compound presented below.
Task: Fill blank: measured inhibition at 1 µM of the compound COC(=O)N[C@@H](C)CNc1nccc(-c2cn(C(C)C)nc2-c2cc(Cl)cc(NS(C)(=O)=O)c2F)n1 [encorafenib] is ____.
Result: -2%

###

- assayedSystem: panel of 255 wild-type kinases (Homo sapiens, UniProt P24941)
- testDescription: Kinase panel profiling at 1 µmol/L (MSA or IMAP), percentage inhibition
- Assay type: biochemical
- settings: CDK2/CycE1 kinase assay; 1 µmol/L single concentration; read-out: %-inhibition CDK2/CycE1
assayReadout: inhibition at 1 µM (%)
All answers are understood in %, so give the number only.

Solved cases below.
>>> df
                                   molecule        assayreadout  number
0  COc1ccc(CN2C3CC2CN(c2ccc(-c4cc(OCC(C)(C)O)cn5ncc(C#N)c45)cn2)C3)cn1 [selpercatinib]  inhibition at 1 µM     -15
1  COC(=O)N[C@@H](C)CNc1nccc(-c2cn(C(C)C)nc2-c2cc(Cl)cc(NS(C)(=O)=O)c2F)n1 [encorafenib]  inhibition at 1 µM      -9
2  Cn1cnc2c(F)c(Nc3ccc(Br)cc3Cl)c(C(=O)NOCCO)cc21 [selumetinib]  inhibition at 1 µM     -55

Continue with the molecule presented below.
Task: Fill blank: measured inhibition at 1 µM of the molecule FC(F)(F)c1ccc(CNc2ccc(Cc3c[nH]c4ncc(Cl)cc34)cn2)cn1 [pexidartinib] is ____.
Result: -4

###

- assayedSystem: panel of 255 wild-type kinases (Homo sapiens, UniProt P27361)
- Sequence (P27361 whole entry): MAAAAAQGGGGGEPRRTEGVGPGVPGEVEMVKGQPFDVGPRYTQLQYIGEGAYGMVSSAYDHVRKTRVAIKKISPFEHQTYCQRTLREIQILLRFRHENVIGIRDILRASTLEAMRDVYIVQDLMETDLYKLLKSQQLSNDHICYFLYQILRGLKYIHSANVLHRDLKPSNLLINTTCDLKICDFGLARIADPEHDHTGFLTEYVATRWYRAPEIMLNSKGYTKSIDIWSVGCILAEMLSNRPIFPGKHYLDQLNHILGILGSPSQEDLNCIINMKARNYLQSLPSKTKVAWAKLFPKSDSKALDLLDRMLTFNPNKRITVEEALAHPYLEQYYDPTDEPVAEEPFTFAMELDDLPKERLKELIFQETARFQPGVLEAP
- testDescription: Kinase panel profiling at 1 µmol/L (MSA or IMAP), percentage inhibition
- Assay type: biochemical
- settings: kinase Erk1; 1 µmol/L single concentration; read-out: %-inhibition at 1 µmol/L, Erk1
Here, each record is paired with measured inhibition at 1 µM data.
All answers are understood in %, so give the number only.

>>> df
                                   compound  unitname  number
0  CO[C@]1(C(=O)N[C@@H](C)c2ccc(-n3cc(F)cn3)nc2)CC[C@H](c2nc(C)cc(Nc3cc(C)[nH]n3)n2)CC1 [pralsetinib]         %      -3

Task: Fill blank: measured inhibition at 1 µM of the compound FC(F)(F)c1ccc(CNc2ccc(Cc3c[nH]c4ncc(Cl)cc34)cn2)cn1 [pexidartinib] is ____.
Result: 2.66

Task: How about this compound: Cn1cnc2c(F)c(Nc3ccc(Br)cc3F)c(C(=O)NOCCO)cc21 [binimetinib]
Result: -4.32

Task: How about this compound: COC(=O)N[C@@H](C)CNc1nccc(-c2cn(C(C)C)nc2-c2cc(Cl)cc(NS(C)(=O)=O)c2F)n1 [encorafenib]
Result: -0.942
